# tgt: MAP kinase-activated protein kinase 3 (Homo sapiens)
# condition.label: at 1 µM
# Description: GSK_PKIS: MAPKAPK3 mean inhibition at 1 uM [Nanosyn]

| molecule.smiles | inhibition, % |
| --- | --- |
| CCn1c(-c2nonc2N)nc2c(C#CC(C)(C)O)nc(OC[C@@H](N)c3ccccc3)cc21 | -7.91 |
| CCn1c(-c2nonc2N)nc2ccncc21 | 1.7 |
| Cc1nn(C)c2cc(N(C)c3ccnc(Nc4cccc(S(N)(=O)=O)c4)n3)ccc12 | 11 |
| CS(=O)(=O)Nc1ccc(N/C=C2\C(=O)Nc3ccccc32)cc1 | -2.88 |
| COc1ccc(-c2nn3ncccc3c2-c2ccnc(Nc3ccc(Cl)c(C(F)(F)F)c3)n2)cc1 | 17.4 |

----------
# tgt: Tyrosine-protein kinase SYK (Homo sapiens)
# condition.label: at 0.1 µM
The entries below come with measured inhibition values attached.

| compound | tgt | units.symbol | inhibition |
| --- | --- | --- | --- |
| CCCN1CCC(Oc2cc(Nc3nc(Nc4cccc(F)c4C(N)=O)c4cc[nH]c4n3)c(OC)cc2Cl)CC1 | Tyrosine-protein kinase SYK (Homo sapiens) | % | 1.01 |
| COC(=O)Nc1nc2cc(Oc3cccc(NC(=O)Nc4cc(C(F)(F)F)ccc4F)c3)ccc2[nH]1 | Tyrosine-protein kinase SYK (Homo sapiens) | % | 0.17 |
| CCN1CCC(CC(=O)Nc2n[nH]c3nc(-c4cccs4)c(Br)cc23)CC1 | Tyrosine-protein kinase SYK (Homo sapiens) | % | -1.06 |
| COc1ccccc1Nc1ncc(-c2ccccc2)o1 | Tyrosine-protein kinase SYK (Homo sapiens) | % | -1.37 |
| CCc1cccc(NC(=O)Nc2ccc(Oc3ccc4nc(NC(=O)OC)[nH]c4c3)cc2)c1 | Tyrosine-protein kinase SYK (Homo sapiens) | % | 2.75 |
| COc1cc2c(cc1Nc1nc(N3CCc4ccccc43)c3cc[nH]c3n1)N(C(=O)CN(C)C)CC2 | Tyrosine-protein kinase SYK (Homo sapiens) | % | 0.91 |
| O=C1NC(=O)C(c2cccc(Cl)c2)=C1Nc1ccc(O)c(Cl)c1 | Tyrosine-protein kinase SYK (Homo sapiens) | % | 1.76 |
| COc1cc2ncn(-c3cc(OCc4ccccc4C(F)(F)F)c(C(N)=O)s3)c2cc1OC | Tyrosine-protein kinase SYK (Homo sapiens) | % | -2.39 |
| Cc1ccc(C(=O)NC2CCCCC2)cc1-c1ccc(C(=O)NCC2CC2)cc1 | Tyrosine-protein kinase SYK (Homo sapiens) | % | -0.6 |
| COc1ccc2cc(-c3c(-c4ccncc4)nc(-c4ccc([S+](C)[O-])cc4)n3C)ccc2c1 (stereo not given) | Tyrosine-protein kinase SYK (Homo sapiens) | % | -1.34 |
| Cc1nnc(-c2ccc(C)c(-c3ccc(C(=O)Nc4cccc(C#N)c4)cc3)c2)o1 | Tyrosine-protein kinase SYK (Homo sapiens) | % | 3.5 |
| Cc1cc(O)cc(C)c1/C=C/c1cncc(-c2nn[nH]n2)c1 | Tyrosine-protein kinase SYK (Homo sapiens) | % | -3.2 |
| NC(=O)c1cccc(Nc2nccc(Nc3cccc4[nH]ncc34)n2)c1 | Tyrosine-protein kinase SYK (Homo sapiens) | % | -5.51 |
| Nc1nc(-c2ccc3c(c2)C(=Cc2cc(Br)c(O)c(Br)c2)C(=O)N3)cs1 | Tyrosine-protein kinase SYK (Homo sapiens) | % | 1.06 |
| CN(C)c1cc2c(Nc3ccc4nc(Cc5ccccc5)[nH]c4c3)ncnc2cn1 | Tyrosine-protein kinase SYK (Homo sapiens) | % | -5.04 |
| Cc1cccc(-c2n[nH]cc2-c2ccc3ncccc3n2)n1 | Tyrosine-protein kinase SYK (Homo sapiens) | % | 1.27 |
| Nc1nc(-c2ccccn2)c(-c2ccc3ncccc3n2)s1 | Tyrosine-protein kinase SYK (Homo sapiens) | % | -1.33 |
| COc1ccc(-c2nn3ncccc3c2-c2ccnc(Nc3ccc(Cl)c(C(F)(F)F)c3)n2)cc1 | Tyrosine-protein kinase SYK (Homo sapiens) | % | -1.43 |
| O=C1NC(=O)C(c2ccc(Cl)cc2)=C1Nc1ccc(Cl)c(C(=O)O)c1 | Tyrosine-protein kinase SYK (Homo sapiens) | % | -1 |
| NCc1ccc(-c2nc(-c3ccc(Cl)c(O)c3)c(-c3ccncc3)[nH]2)cc1 | Tyrosine-protein kinase SYK (Homo sapiens) | % | -2.73 |
| O=C1NC(=O)C(c2ccccc2Cl)=C1Nc1cccc(O)c1 | Tyrosine-protein kinase SYK (Homo sapiens) | % | 0.85 |
| [O-][S+]1CCN(Cc2ccc(-c3ccc4ncnc(Nc5ccc(OCc6ccccc6)c(F)c5)c4c3)o2)CC1 | Tyrosine-protein kinase SYK (Homo sapiens) | % | -2.3 |
| CS(=O)(=O)CCNCc1ccc(-c2ccc3ncnc(Nc4ccc(OCc5cccc(F)c5)c(C(F)(F)F)c4)c3c2)o1 | Tyrosine-protein kinase SYK (Homo sapiens) | % | -6.45 |
| CCn1c(-c2nonc2N)nc2cncc(C(=O)N3CC[C@H](N)C3)c21 | Tyrosine-protein kinase SYK (Homo sapiens) | % | -5.72 |
| c1cnn2ncc(-c3ccnc(Nc4ccc5c(c4)OCCO5)n3)c2c1 | Tyrosine-protein kinase SYK (Homo sapiens) | % | -8.51 |
